chromatographic logP overview
- protocol summary: Log P by HPLC on reversed phase columns, method [a] (acidic range, 0.1% formic acid)
- condition notes: LogP, method [a] / Method A: LC-UV, acidic range
Note: the reply should be a number with no unit written.

These solved cases illustrate the format of a correct answer.
CC(C)(C)[Si](C)(C)OCc1ccnn1-c1c(F)cccc1Br | 4.96
Fc1cccc2cc(Nc3ccccc3-c3ccnn3Cc3ccccc3)cnc12 | 3.49
Cc1nc2ccccc2nc1Nc1cccc(F)c1-c1ccnn1C | 2.82
CC1(C)OB(c2ccccc2Nc2cnc3ccccc3c2)OC1(C)C | 4.29
CC(C)(C)OC(=O)N(c1cnc2ccccc2c1)c1ccccc1-n1nccc1C(=O)O | 2.42

Let's switch to this molecule now.
Problem: Fill in: chromatographic logP of CC(C)(C)OC(=O)N(c1cnc2ccccc2c1)c1ccccc1-n1nccc1C=O is ___
Result: 3.06

----------
- protocol summary: Log P by HPLC on reversed phase columns, method [a] (acidic range, 0.1% formic acid)
- condition notes: LogP, method [a] / Method A: LC-UV, acidic range
Threshold check on chromatographic logP: strictly below 3 is TRUE; on or above 3 is FALSE.

Examples from the recorded data:
CC(C)(C)OC(=O)N(c1cnc2ccccc2c1)c1cccc(F)c1-n1nccc1CO[Si](C)(C)C(C)(C)C | FALSE
COC(=O)c1ccnn1-c1ccccc1Nc1cnc2ccccc2c1 | TRUE
CCn1nccc1-c1c(F)cccc1Br | TRUE
CC1(C)OB(c2ccccc2Nc2cnc3c(F)cccc3c2)OC1(C)C | FALSE
CC(C)(C)[Si](C)(C)OCc1ccnn1-c1c(N)cccc1F | FALSE

Problem: Consider COC(=O)c1ccnn1-c1c(F)cccc1Br . Does its chromatographic logP lie strictly below 3?
Result: TRUE

Problem: Consider CC(C)(C)OC(=O)N(c1cnc2ccccc2c1)c1ccccc1-n1nccc1CO . Does its chromatographic logP lie strictly below 3?
Result: TRUE

Problem: Consider CC(C)(C)OC(=O)N(c1cnc2ccccc2c1)c1cccc(F)c1-n1nccc1CO . Does its chromatographic logP lie strictly below 3?
Result: TRUE

Problem: Consider OCc1ccnn1-c1c(F)cccc1Br . Does its chromatographic logP lie strictly below 3?
Result: TRUE

Problem: Consider Cn1nccc1-c1c(F)cccc1Br . Does its chromatographic logP lie strictly below 3?
Result: TRUE

----------
- protocol summary: Log P by HPLC on reversed phase columns, method [a] (acidic range, 0.1% formic acid)
- condition notes: LogP, method [a] / Method A: LC-UV, acidic range
chromatographic logP overview

These solved cases illustrate the format of a correct answer.
CC(C)(C)OC(=O)N(c1cnc2ccccc2c1)c1cccc(F)c1-n1nccc1C(C)(C)O [XX-11] | 3.33
Fc1cccc(Br)c1-c1ccnn1CCc1ccccc1 [IXa-05] | 3.83

Let's switch to this compound now.
Problem: Fill in: chromatographic logP of COC(=O)c1ccnn1-c1ccccc1N(C(=O)OC(C)(C)C)c1cnc2ccccc2c1 [XX-05] is ___
Result: 3.19

----------
chromatographic logP overview
- protocol summary: Log P by HPLC on reversed phase columns, method [a] (acidic range, 0.1% formic acid)
- condition notes: LogP, method [a] / Method A: LC-UV, acidic range
Note: the reply should be a number with no unit written.

Fc1cccc2cc(Nc3ccccc3Br)cnc12 | 3.27
CC(C)(C)OC(=O)N(c1cnc2ccccc2c1)c1cccc(F)c1-n1nccc1C=O | 3.24
CC(C)n1nccc1-c1c(F)cccc1Br | 3.09
CC1(C)OB(c2ccccc2Cc2cnc3ccccc3c2)OC1(C)C | 3.39

Let's switch to this compound now.
Problem: Fill in: chromatographic logP of COC(=O)c1ccn(-c2ccccc2Nc2cnc3ccccc3c2)n1 is ___
Result: 2.16
